System: Clostridium botulinum
protocol: Zinc chelating activity mediated inhibition of Clostridium botulinum BoNT/A LC activity at 15 uM using SNAPtide as substrate measured for 10 mins by FRET assay relative to control
Would you mind telling me the reported inhibition of each entry?
Give bare numbers, in %.

# batch: return inhibition for each of the 8 molecules below
1. CC[C@H](C)[C@@H](NS(=O)(=O)c1ccc(-c2ccc(Cl)cc2)cc1)C(=O)N[C@@H](Cc1ccccc1)C(=O)NO
2. CC[C@H](C)[C@H](NC(=O)[C@H](NS(=O)(=O)c1ccc(-c2ccc(Cl)cc2)cc1)[C@@H](C)CC)C(=O)NO
3. CC[C@H](C)[C@H](NS(=O)(=O)c1ccc(-c2ccc(Cl)cc2)cc1)C(=O)NC(C)(C)C(=O)NO
4. CCOc1ccc(S(=O)(=O)N[C@@H](Cc2ccccc2)C(=O)N[C@H](C(=O)NO)[C@@H](C)CC)cc1OCC
5. CC[C@H](C)[C@H](NC(=O)[C@H](Cc1ccccc1)NS(=O)(=O)c1ccc(-c2ccccc2)cc1)C(=O)NO
6. CC[C@H](C)[C@H](NS(=O)(=O)c1ccc(-c2ccc(Cl)cc2)cc1)C(=O)NCCC(=O)NO
7. CC[C@H](C)[C@H](NC(=O)[C@H](Cc1ccccc1)NS(=O)(=O)c1cccc(C(C)(C)C)c1)C(=O)NO
8. CC[C@H](C)[C@@H](NC(=O)[C@@H](Cc1ccccc1)NS(=O)(=O)c1ccc(-c2ccc(Cl)cc2)cc1)C(=O)NO

**A:**
[62, 69, 11, 22, 77, 62, 93, 63]

# batch: return inhibition for each of the 5 molecules below
1. CC[C@H](C)[C@H](NC(=O)[C@H](C)NS(=O)(=O)c1ccc(-c2ccc(Cl)cc2)cc1)C(=O)NO
2. CC[C@H](C)[C@H](NC(=O)[C@H](Cc1ccccc1)NS(=O)(=O)c1ccc(Cl)cc1)C(=O)NO
3. CC[C@H](C)[C@H](NC(=O)C(C)(C)NS(=O)(=O)c1ccc(-c2ccc(Cl)cc2)cc1)C(=O)NO
4. CC[C@H](C)[C@H](NS(=O)(=O)c1ccc(-c2ccc(Cl)cc2)cc1)C(=O)N[C@@H](C)C(=O)NO
5. CC[C@H](C)[C@H](NC(=O)[C@H](Cc1ccccc1)NS(=O)(=O)c1ccc(C2CCCCC2)cc1)C(=O)NO

**A:**
1. 31
2. 77
3. 84
4. 55
5. 57

# batch: return inhibition for each of the 6 molecules below
1. CC[C@H](C)[C@H](NS(=O)(=O)c1ccc(-c2ccc(Cl)cc2)cc1)C(=O)NCC(=O)NO
2. CC[C@H](C)[C@H](NC(=O)[C@H](Cc1ccccc1)NS(=O)(=O)c1cc(Cl)cc(Cl)c1)C(=O)NO
3. CC[C@H](C)[C@H](NC(=O)[C@H](Cc1ccccc1)NS(=O)(=O)c1cccc(Cl)c1)C(=O)NO
4. CC[C@H](C)[C@H](NC(=O)[C@H](Cc1ccccc1)NS(=O)(=O)c1c(Cl)cccc1Cl)C(=O)NO
5. CC[C@H](C)[C@@H](NC(=O)[C@H](NS(=O)(=O)c1ccc(-c2ccc(Cl)cc2)cc1)[C@@H](C)CC)C(=O)NO
6. CC[C@H](C)[C@H](NC(=O)[C@@H](NS(=O)(=O)c1ccc(-c2ccc(Cl)cc2)cc1)[C@@H](C)CC)C(=O)NO

**A:**
18
100
79
83
48
85

# batch: return inhibition for each of the 3 molecules below
1. CC[C@H](C)[C@H](NC(=O)[C@H](Cc1ccccc1)NS(=O)(=O)c1ccccc1)C(=O)NO
2. CC[C@H](C)[C@H](NC(=O)[C@@H](Cc1ccccc1)NS(=O)(=O)c1ccc(-c2ccc(Cl)cc2)cc1)C(=O)NO
3. CC[C@H](C)[C@H](NC(=O)[C@H](Cc1ccccc1)NS(=O)(=O)c1ccc(-c2ccc(Cl)cc2)cc1)C(=O)NO

**A:**
1: 52; 2: 41; 3: 100

Where these numbers come from: ChEMBL document CHEMBL4715928
